tested_system: Gal(b1-3)GlcNAc(b1-2)Man(a1-3)[Gal(b1-3)GlcNAc(b1-2)Man(a1-6)]Man(b1-4)GlcNAc(b1-4)[Fuc(a1-6)]GlcNAc
measurement_description: glycan array binding signal (z-score within array); higher = stronger binding
assay_context: glycan notation: IUPAC condensed, linker removed
This is one part of a sample in which the strongest signals are shown more often than they occur.
Each entry below carries its recorded glycan array binding signal (z-score).
outcome_measure: glycan array binding signal (z-score)

1) CCL2 (Coprinopsis cinerea), B3GA02 (protein) MDSPAVTLSAGNYIIYNRVLSPRGEKLALTYPGRQRTPVTVSPLDGSSEQAWILRSYDSNSNTWTISPVGSPNSQIGWGAGNVPVVLPPNNYVWTLTLTSGGYNIQDGKRTVSWSLNNATAGEEVSIGADATFSGRWVIEKV    -0.283
2) APVPVTKLVCDGDTYKCTAYLDFGDGRWVAQWDTNVFHTG [PhoSpL (Pholiota squarrosa)]    6.05

Data credit: the supplement of paper PMC8728848
